For Prothrombin (Homo sapiens), measured pIC50 is reported for the entries below.
pIC50: −log10 of the molar value.
Experimental Readout: pIC50

molecule=CC(C)c1cc(CCOc2c(Cl)cccc2C(=O)O)cc(-c2ccc3c(c2)[C@H](N)CO3)c1 reading=5.21
molecule=CC(C)c1cc(COc2ccccc2CC(=O)O)cc(-c2ccc3c(c2)[C@H](N)CO3)c1 reading=7.05
molecule="COc1cccc(C(=O)O)c1OCC(O)c1cc(-c2ccc3c(c2)[C@H](N)CO3)cc(C(C)C)c1 (mixture of isomers)" reading=5.13

(P) CC(C)c1cc(-c2ccc3c(c2)[C@H](N)CO3)cc(C(O)CN2CCc3cccc(C(=O)O)c32)c1 (mixture of isomers)
(Q) Cc1cccc(C(=O)O)c1OCCc1cc(-c2ccc3c(c2)[C@H](N)CO3)cc(C(C)C)c1
(R) CC(C)c1cc(CCN2CCc3cccc(C(=O)O)c32)cc(-c2ccc3c(c2)[C@H](N)CO3)c1
# input Let's sort these by pIC50, smallest first. Go ahead? Please, when replying, give the labels in the order that was requested.
# output Q, P, R
(Q: 5.01, P: 5.21, R: 5.51)

====

Test Name: AUC (0 to t) in beagle dog at 1 mg/kg, iv by HPLC-MS/MS analysis
Format: ADME, organism-based, Canis lupus familiaris
Condition Details: in vivo
Experimental Readout: AUC(0-t) (µM·h)
State the answer as a number, implicitly in µM·h.

# input # return recorded AUC(0-t) for entry CC(C)c1cc(-c2ccc3c(c2)[C@H](N)CO3)cc([C@H](O)Cn2ccc3cccc(C(=O)O)c32)c1
# output 10.7

====

Test Target: Coagulation factor XI (Homo sapiens)
Test Name: Inhibition of […] human plasma F11a catalytic domain expressed in Escherichia coli strain BL21(DE3) using D-Leu-Pro-Arg*Rh110-D-Pro as substrate preincubated for 60 mins followed by substrate addition and measured after 60 mins by fluorescence assay
Experimental Readout: IC50 (nM)

(P) CC(C)(C(N)=O)c1cc(COc2ccccc2CC(=O)O)cc(-c2ccc3c(c2)[C@H](N)CO3)c1
(Q) CC(C)(O)c1cc(COc2ccccc2CC(=O)O)cc(-c2ccc3c(c2)[C@H](N)CO3)c1
(R) COc1cccc(C(=O)O)c1OCC(O)c1cc(-c2ccc3c(c2)[C@H](N)CO3)cc(C(C)C)c1 (mixture of isomers)
# input Going from lowest to highest recorded IC50, rank the entries listed above. Write the labels in rank order as requested.
# output P, Q, R
(P: 67 nM, Q: 170 nM, R: 8110 nM)

(I) CC(C)(C#N)c1cc(COc2ccccc2CC(=O)O)cc(-c2ccc3c(c2)[C@H](N)CO3)c1
(II) CC1(C)COc2c(COc3ccccc3CC(=O)O)cc(-c3ccc4c(c3)[C@H](N)CCO4)cc21
# input Please compare: I and II . Report which one has the smaller IC50 value. State the label of the item chosen.
# output I
(I: 50 nM, II: 260 nM)

====

Test Target: UniProt P00749
Assay type: single protein
Experimental Readout: IC50 (nM)

Sample answers from the record:
compound=CC(C)c1cc(-c2ccc3c(c2)[C@H](N)CO3)cc([C@@H]2CNc3cccc(CC(=O)O)c3O2)c1 experimental_readout=IC50 reading=20
compound=Cc1cccc(C(=O)O)c1OCCc1cc(-c2ccc3c(c2)[C@H](N)CO3)cc(C(C)C)c1 experimental_readout=IC50 reading=2480
compound="COc1cccc(C(=O)O)c1OCC(O)c1cc(-c2ccc3c(c2)[C@H](N)CO3)cc(C(C)C)c1 (mixture of isomers)" experimental_readout=IC50 reading=1130

(1) CC(C)c1cc(-c2ccc3c(c2)[C@H](N)CO3)cc(C(O)Cn2ccc3cccc(C(=O)O)c32)c1 (mixture of isomers)
(2) CC(C)c1cc(CCOc2ccccc2C(=O)O)cc(-c2ccc3c(c2)[C@H](N)CO3)c1
(3) CC(C)c1cc(-c2ccc3c(c2)[C@H](N)CO3)cc(C(O)CN2CCc3cccc(C(=O)O)c32)c1 (mixture of isomers)
(4) COc1cccc(C(=O)O)c1OCCc1cc(-c2ccc3c(c2)[C@H](N)CO3)cc(C(C)C)c1
(5) CC(C)c1cc(CCOc2c(Cl)cccc2C(=O)O)cc(-c2ccc3c(c2)[C@H](N)CO3)c1
# input Give the ascending ranking of the items by reported IC50. // ordering of labels required in reply
# output 2, 3, 4, 5, 1

====

Test Name: physchem
Condition Details: buffer, pH 7.4
Experimental Readout: logD
When you answer, write just the number.

# input Return reported logD. Input molecule: CC(C)c1cc(-c2ccc3c(c2)[C@H](N)CO3)cc([C@H](O)Cn2ccc3cccc(C(=O)O)c32)c1
# output 2.2

====

Test Target: Coagulation factor XI (Homo sapiens, UniProt P03951)
Sequence (P03951 19-387 limits assumed): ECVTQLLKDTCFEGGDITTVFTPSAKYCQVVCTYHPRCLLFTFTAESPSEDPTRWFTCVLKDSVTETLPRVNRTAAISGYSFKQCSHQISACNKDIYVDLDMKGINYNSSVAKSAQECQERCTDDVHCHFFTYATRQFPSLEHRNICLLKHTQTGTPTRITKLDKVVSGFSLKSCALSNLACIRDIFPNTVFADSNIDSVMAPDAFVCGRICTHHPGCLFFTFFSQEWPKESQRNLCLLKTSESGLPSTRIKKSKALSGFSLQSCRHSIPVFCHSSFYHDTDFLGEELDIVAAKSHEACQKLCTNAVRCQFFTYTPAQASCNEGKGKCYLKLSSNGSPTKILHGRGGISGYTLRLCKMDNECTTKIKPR
Sequence (P03951 388-625 limits assumed): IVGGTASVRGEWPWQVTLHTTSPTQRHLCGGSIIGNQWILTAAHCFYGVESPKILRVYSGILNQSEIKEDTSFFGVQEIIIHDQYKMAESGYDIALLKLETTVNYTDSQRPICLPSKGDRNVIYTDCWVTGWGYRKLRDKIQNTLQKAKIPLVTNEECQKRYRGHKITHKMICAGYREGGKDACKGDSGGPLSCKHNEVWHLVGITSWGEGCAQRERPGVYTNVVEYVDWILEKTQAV
Test Name: Inhibition of human F11a using D-Leu-Pro-Arg*Rh110-D-Pro as substrate preincubated for 60 mins followed by substrate addition and measured after 60 mins by fluorescence assay
pIC50: −log10 of the molar value.
Experimental Readout: pIC50

(P) CC(C)(C#N)c1cc(COc2ccccc2CC(=O)O)cc(-c2ccc3c(c2)[C@H](N)CO3)c1
(Q) CC(C)c1cc(CCOc2c(Cl)cccc2C(=O)O)cc(-c2ccc3c(c2)[C@H](N)CO3)c1
(R) O=C(O)Cc1ccccc1OCc1cccc(-c2ccc3c(c2)CNCC3)c1
# input Lab note: pIC50 ranking, ascending, for the listed compounds. Answer by listing the labels in the requested order.
# output R, Q, P

====

Test Target: Tissue-type plasminogen activator (Homo sapiens)
Sequence (P00750 whole entry): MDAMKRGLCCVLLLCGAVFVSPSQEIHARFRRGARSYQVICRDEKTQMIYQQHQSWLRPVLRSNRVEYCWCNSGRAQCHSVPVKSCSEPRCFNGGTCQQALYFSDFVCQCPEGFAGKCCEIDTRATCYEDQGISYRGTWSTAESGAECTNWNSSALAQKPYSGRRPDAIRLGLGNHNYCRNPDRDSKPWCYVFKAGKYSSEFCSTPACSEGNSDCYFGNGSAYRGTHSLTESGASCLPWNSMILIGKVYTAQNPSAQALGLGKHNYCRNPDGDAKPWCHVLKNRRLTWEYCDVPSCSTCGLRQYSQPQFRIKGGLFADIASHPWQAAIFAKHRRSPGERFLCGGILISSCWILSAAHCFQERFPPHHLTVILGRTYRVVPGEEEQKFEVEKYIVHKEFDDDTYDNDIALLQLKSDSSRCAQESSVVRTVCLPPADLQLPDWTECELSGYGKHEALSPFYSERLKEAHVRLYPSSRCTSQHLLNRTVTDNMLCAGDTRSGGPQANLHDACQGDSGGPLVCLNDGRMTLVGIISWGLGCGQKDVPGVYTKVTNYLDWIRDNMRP
Experimental Readout: IC50 (nM)

The following compounds have reported results that may help.
smiles_structure=CC1(C)COc2c(COc3ccccc3CC(=O)O)cc(-c3ccc4c(c3)[C@H](N)CO4)cc21 experimental_readout=IC50 unit_info=nM reading=100
smiles_structure=COc1cccc(C(=O)O)c1OCCc1cc(-c2ccc3c(c2)[C@H](N)CO3)cc(C(C)C)c1 experimental_readout=IC50 unit_info=nM reading=2200
smiles_structure=CC(C)c1cc(COc2ccccc2CC(=O)O)cc(-c2ccc3c(c2)[C@H](N)CO3)c1 experimental_readout=IC50 unit_info=nM reading=90
smiles_structure=CC(C)c1cc(CCOc2c(Cl)cccc2C(=O)O)cc(-c2ccc3c(c2)[C@H](N)CO3)c1 experimental_readout=IC50 unit_info=nM reading=3670
smiles_structure=CC(C)c1cc(CCOc2ccccc2C(=O)O)cc(-c2ccc3c(c2)[C@H](N)CO3)c1 experimental_readout=IC50 unit_info=nM reading=90

(I) Cc1cccc(C(=O)O)c1OCCc1cc(-c2ccc3c(c2)[C@H](N)CO3)cc(C(C)C)c1
(II) CC(C)c1cc(-c2ccc3c(c2)[C@H](N)CO3)cc([C@H](O)Cn2ccc3cccc(C(=O)O)c32)c1
# input Which numeric IC50 is bigger, that of I or that of II ? State the label of the item chosen.
# output I
(I: 4130 nM, II: 250 nM)

====

Test Name: Volume of distribution at steady state in C57BL/6 mouse at 1 mg/kg, iv bolus injection or 3 mg/kg, po by LC-MS/MS analysis
Type: ADME, organism-based
Condition Details: in vivo, read-out: Vdss
Experimental Readout: Vd (L/kg)

smiles_structure=CC(C)c1cc(COc2ccccc2CC(=O)O)cc(-c2ccc3c(c2)[C@H](N)CO3)c1 experimental_readout=Vd reading=0.4

(a) CC(C)(C#N)c1cc(COc2ccccc2CC(=O)O)cc(-c2ccc3c(c2)[C@H](N)CO3)c1
(b) CC(C)(O)c1cc(COc2ccccc2CC(=O)O)cc(-c2ccc3c(c2)[C@H](N)CO3)c1
(c) CC1(C)COc2c(COc3ccccc3CC(=O)O)cc(-c3ccc4c(c3)[C@H](N)CO4)cc21
# input Order by Vd, ascending. Write the labels, ordered according to the request.
# output b, a, c
(b: 0.4 L/kg, a: 0.7 L/kg, c: 1 L/kg)

====

Test Name: Oral bioavailability in Sprague-Dawley rat at 3 mg/kg via gavage by HPLC-MS/MS analysis
Format: ADME, organism-based
Condition Details: in vivo
Experimental Readout: bioavailability (%)
Record the value in %, omitting the unit from your answer.

# input Report measured bioavailability; entry is CC(C)c1cc(-c2ccc3c(c2)[C@H](N)CO3)cc([C@H](O)Cn2ccc3cccc(C(=O)O)c32)c1
# output 10

====

Test Target: Plasma kallikrein (Homo sapiens, UniProt P03952)
Sequence (P03952 20-390 limits assumed): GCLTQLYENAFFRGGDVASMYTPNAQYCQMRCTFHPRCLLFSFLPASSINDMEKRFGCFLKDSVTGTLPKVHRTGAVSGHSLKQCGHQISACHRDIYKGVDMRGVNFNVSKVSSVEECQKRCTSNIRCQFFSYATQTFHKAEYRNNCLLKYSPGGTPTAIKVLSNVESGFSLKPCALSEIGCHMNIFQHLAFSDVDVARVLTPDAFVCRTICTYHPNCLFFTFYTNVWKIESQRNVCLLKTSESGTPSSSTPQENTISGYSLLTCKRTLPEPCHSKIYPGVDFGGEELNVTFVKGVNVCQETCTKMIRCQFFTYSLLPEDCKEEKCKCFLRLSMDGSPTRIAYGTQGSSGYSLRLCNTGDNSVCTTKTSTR
Sequence (P03952 391-638 limits assumed): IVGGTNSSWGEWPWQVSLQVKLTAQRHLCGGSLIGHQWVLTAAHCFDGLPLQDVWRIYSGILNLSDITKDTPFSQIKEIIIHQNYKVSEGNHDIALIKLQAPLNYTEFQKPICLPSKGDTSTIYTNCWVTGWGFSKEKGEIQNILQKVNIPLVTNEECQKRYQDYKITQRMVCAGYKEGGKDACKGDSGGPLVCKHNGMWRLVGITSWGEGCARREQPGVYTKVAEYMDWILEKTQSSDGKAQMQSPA
Assay type: single protein
pIC50: −log10 of the molar value.
Experimental Readout: pIC50

compound="NC1COc2ccc(C(=O)N3C[C@@H](c4ccccc4)C[C@H]3C(=O)Nc3cccc(Cl)c3)cc21 (mixture of isomers)" experimental_readout=pIC50 reading=5.92
compound=CC(C)c1cc(CCOc2c(Cl)cccc2C(=O)O)cc(-c2ccc3c(c2)[C@H](N)CO3)c1 experimental_readout=pIC50 reading=7.68
compound=NCc1cccc(-c2cccc(COc3ccccc3CC(=O)O)c2)c1 experimental_readout=pIC50 reading=5.51
compound=CC(C)c1cc(CCOc2ccccc2C(=O)O)cc(-c2ccc3c(c2)[C@H](N)CO3)c1 experimental_readout=pIC50 reading=7.60
compound="COc1cccc(C(=O)O)c1OCC(O)c1cc(-c2ccc3c(c2)[C@H](N)CO3)cc(C(C)C)c1 (mixture of isomers)" experimental_readout=pIC50 reading=6.80

(A) CC(C)c1cc(-c2ccc3c(c2)[C@H](N)CO3)cc([C@H](O)Cn2ccc3cccc(C(=O)O)c32)c1
(B) CC1(C)COc2c(COc3ccccc3CC(=O)O)cc(-c3ccc4c(c3)[C@H](N)CO4)cc21
(C) CC1(C)COc2c(COc3ccccc3CC(=O)O)cc(-c3ccc4c(c3)[C@H](N)CCO4)cc21
# input Arrange these 3 compounds in increasing order of pIC50. I'd appreciate it if you listed the labels in the requested order.
# output B, C, A
(B: 8.15, C: 8.40, A: 9.00)

Cited source for all entries: ChEMBL document CHEMBL4619774
